System: MDA-MB-435
protocol: NCI tumour cell line growth inhibition, 48 h
reported.endpoint: TGI

                                   compound  reported_endpoint    result
0         NC(N)=N/N=C(/c1ccccc1)c1ccc(F)cc1                TGI  0.834 µM
1  Nc1nc(Cl)cc(NCC2(CO)CC(CCc3ccccc3)C2)n1 (stereo not given)                TGI  > 100 µM
2  CCOc1ccc(N/C(=C(/C(Cl)=C(/Cl)NCCN)[N+](=O)[O-])n2nnc3ccccc32)cc1                TGI  > 100 µM
3  COc1ccc(N2C(=O)C3c4[nH]c5ccc([N+](=O)[O-])cc5c4C4CCC(C(C)(C)C)CC4C3C2=O)cc1 (stereo not given)                TGI  > 100 µM
4  [N-]=[N+]=Nc1c(Cl)c(=O)n(-c2ccccc2)c2ccccc12                TGI     35 µM
5    O=C1CC(O)c2c1csc2Br (stereo not given)                TGI   41.1 µM
6  O=C(Cc1nc2ccc(C(=O)c3ccccc3)cc2[nH]c1=O)C(=O)Nc1ccc(Br)cc1                TGI  > 100 µM
7  COC1(C(=O)N2Cc3nc(Cl)nc(N[C@H](C)c4cc(N)cc(C(F)(F)F)c4)c3C2)CCOCC1                TGI   41.4 µM

Problem: I am curious: what TGI value has been reported for `CN1CCN(Cc2ccc(C(=O)Nc3cncc(C#Cc4cnc(N)c5ccccc45)c3)cc2C(F)(F)F)CC1` ?
Result: 3.12 µM

Problem: I am curious: what TGI value has been reported for `O=c1c2ccccc2[nH]c(=S)n1-c1ccc(N=Nc2cccc3c(O)cccc23)cc1` ?
Result: 68.9 µM

====

Tested on: OVCAR-3 ovarian
protocol: NCI tumour cell line growth inhibition, 48 h
reported.endpoint: GI50

>>> df
                                   compound     study_target    result
0             O=C(Nc1nc2ccccc2s1)OCC(F)(F)F  OVCAR-3 ovarian  > 100 µM
1    Clc1ccccc1C(c1ccccc1)(c1ccccc1)n1ccnc1  OVCAR-3 ovarian   1.78 µM
2  C=C1C(O)C2CCC(C)(C)C(=O)C2=C(CC(C)C)C12CC2 (stereo not given)  OVCAR-3 ovarian   34.7 µM
3  C=CC(=O)Nc1cccc(-c2nc(SC)nc(Nc3ccccc3OC)c2C#N)c1  OVCAR-3 ovarian   1.87 µM
4  COc1c(C2CC(=O)Nc3c2cnn3Cc2ccco2)cc2c(c1OC)OCO2 (stereo not given)  OVCAR-3 ovarian  0.325 µM

Problem: Under OVCAR-3 ovarian: GI50 value of `CCCCCCCCCCCCCC(=S)NCCCC[C@H](NC(=O)OCc1ccccc1)C(=O)Nc1ccccc1` ?
Result: 3.52 µM

Problem: Under OVCAR-3 ovarian: GI50 value of `N#Cc1c(NC(=O)c2cccc(C(F)(F)F)c2)sc2c1CCC(=O)C2` ?
Result: 0.418 µM

Problem: Under OVCAR-3 ovarian: GI50 value of `COc1ccc(C(=O)Nc2ncc(Cc3ccc(Cl)cc3)s2)cc1` ?
Result: 0.0327 µM

Problem: Under OVCAR-3 ovarian: GI50 value of `C=C1C(=O)O[C@H]2[C@H]1CC/C(CNC(=O)c1c[nH]c3ccc(F)cc13)=C\CC[C@@]1(C)O[C@@H]21` ?
Result: 0.486 µM

Problem: Under OVCAR-3 ovarian: GI50 value of `CC(C)(C)OC(=O)n1cc(CNC(=S)Nc2ccccc2)c2ccccc21` ?
Result: 11.7 µM

====

Tested on: IGROV1 ovarian
protocol: NCI tumour cell line growth inhibition, 48 h
# TGI annotations

Completed entries (count: 10):
molecule	TGI
COC(=O)C1(Cc2ccccc2)Cc2cc3c(cc2C1=O)CCC3 (stereo unspecified)	> 100 µM
CC(=O)NC1C(OCc2ccccc2)OC(CO)C(O)C1OCC(=O)N[C@@H](C)C(=O)N[C@H](CCC(=O)NCCNCCNc1c2ccccc2nc2cccc([N+](=O)[O-])c12)C(N)=O (stereo partly specified)	32.7 µM
C=CC1=CSNN1	> 100 µM
C/C(=N\NC(=S)NC(C)C)c1nc2ncccc2[nH]1	> 80.1 µM
CCOC(=O)C(OCC1CC=CCC1)Sc1ccccc1 (stereo unspecified)	> 100 µM
C=CC(=O)c1ccc2c(c1)OCCOCCOCCOCCOCCO2	> 100 µM
N#Cc1c(NC(=O)c2cccc(C(F)(F)F)c2)sc2c1CCC(=O)C2	2.09 µM
CCOC(=O)c1sc2nc(SC)nc3c2c1N=CN3c1ccc(Br)cc1	> 100 µM
C1COCCN1.C1COCCN1.N.N.[Cl-].[Pt+2]	> 100 µM
Oc1ccccc1/C=N/Nc1ccc2ccccc2n1	12.3 µM

Problem: I am curious: what TGI value has been reported for C#Cc1cnc(=O)n(C2CC(O)C(CO)O2)c1 (stereo unspecified) ?
Result: > 100 µM

Problem: I am curious: what TGI value has been reported for CCCN=C1CC(C)Nc2ccccc2N1 (stereo unspecified) ?
Result: > 100 µM

Problem: I am curious: what TGI value has been reported for CCCCCCCCCCCCCCCC(=O)NCC(COP(=O)([O-])OCC[N+](C)(C)C)OCC (stereo unspecified) ?
Result: 16 µM

Problem: I am curious: what TGI value has been reported for CC(=O)OCC1OC(O[C@@H]2C[C@H]3C(C)(C)[C@H](OC(C)=O)CC[C@]3(C)[C@H]3CCC4=C([C@@H](C)C[C@@H](O)[C@H](O)C(C)(C)O)CC[C@@]4(C)[C@@]32C)C(O)C(O)C1O (stereo partly specified) ?
Result: 30.1 µM

Problem: I am curious: what TGI value has been reported for `Cc1cc(-c2nc3ccccc3s2)ccc1NS(=O)(=O)O` ?
Result: > 100 µM

Problem: I am curious: what TGI value has been reported for `O=C1CCCN(c2ccccc2)N1` ?
Result: > 100 µM

Problem: I am curious: what TGI value has been reported for `Clc1cc(N/N=C(/c2ccccc2)c2ncccn2)ncn1` ?
Result: 36.3 µM

Problem: I am curious: what TGI value has been reported for `N#Cc1c(-c2cccs2)c2c(=S)[nH]c(=S)[nH]c2[nH]c1=S` ?
Result: > 100 µM

Problem: I am curious: what TGI value has been reported for CCCCCCCCCC[C@@H](O)[C@H]1CC[C@H]([C@H]2CC[C@H]([C@H](O)CCCCCCCCCC[C@@H]3CC(CC(C)=O)C(=O)O3)O2)O1 (stereo partly specified) ?
Result: > 50 µM

Problem: I am curious: what TGI value has been reported for `CN1CCN(CC#Cc2cccc(C(=O)c3cnn(-c4ccc(F)cc4)c3N)c2)CC1` ?
Result: > 25 µM

Problem: I am curious: what TGI value has been reported for `O=C(/C=C/c1ccc(Cl)cc1)c1ccc(Cl)cc1Cl` ?
Result: 14.6 µM

====

System: M14 melanoma
protocol: NCI tumour cell line growth inhibition, 48 h
reported.endpoint: TGI

Completed entries (count: 10):
compound	TGI
CCN(CC)CCOC(c1cc(OC)ccc1OC)c1ccc2n1-c1ccccc1OC2 (configuration not stated)	33.2 µM
CCC(=O)C(c1ccccc1)c1ccccn1 (configuration not stated)	> 100 µM
N#Cc1c(-c2cccs2)c2c(=S)[nH]c(=S)[nH]c2[nH]c1=S	> 100 µM
O=C(c1cccs1)c1c(C(F)(F)F)n([O-])c2ccccc2[n+]1=O	1.58 µM
C#CCNC(=O)NC(CCCNC(=O)OCc1ccccc1)C(=O)OCc1ccccc1 (configuration not stated)	50.6 µM
N#C/C(=C\NC(=S)Nc1ccc(S(=O)(=O)Nc2ccccn2)cc1)C(N)=O	> 100 µM
Cc1[nH]c(/C=C2\C(=O)Nc3ccc(S(=O)(=O)Cc4c(Cl)cccc4Cl)cc32)c(C)c1C(=O)N1CCC[C@@H]1CN1CCCC1	2.92 µM
CC1(C)CC2(C)CC1CC2O (configuration not stated)	> 100 µM
O=C1CC(=O)N(c2ccccc2)N1/C(=C/c1ccccc1)c1ccccc1	46.6 µM
NC(N)=N/N=C(/c1ccccc1)c1ccc(F)cc1	0.506 µM

Problem: I am curious: what TGI value has been reported for Cc1ccc2c(c1C)CC1(Cc3c(ccc4c3CCC4)C1=O)C2=O (configuration not stated) ?
Result: > 100 µM

Problem: I am curious: what TGI value has been reported for `Cn1cc(NC(=O)c2cc(NC(=O)CCCCCCCCCCC(=O)Nc3cc(C(=O)Nc4cc(C(=O)NCCC(=N)N)n(C)c4)n(C)c3)cn2C)cc1C(=O)NCCC(=N)N` ?
Result: > 100 µM

Problem: I am curious: what TGI value has been reported for `Cc1cc(-c2nc3ccccc3s2)ccc1NS(=O)(=O)O` ?
Result: > 100 µM
